Provenance of the data: ChEMBL document CHEMBL4402608

For each of the compounds below, state its inhibition at […], 10 µM.
- TESTED SYSTEM: dopamine transporter (DAT) (Homo sapiens, UniProt Q01959)
- Sequence (Q01959 whole entry): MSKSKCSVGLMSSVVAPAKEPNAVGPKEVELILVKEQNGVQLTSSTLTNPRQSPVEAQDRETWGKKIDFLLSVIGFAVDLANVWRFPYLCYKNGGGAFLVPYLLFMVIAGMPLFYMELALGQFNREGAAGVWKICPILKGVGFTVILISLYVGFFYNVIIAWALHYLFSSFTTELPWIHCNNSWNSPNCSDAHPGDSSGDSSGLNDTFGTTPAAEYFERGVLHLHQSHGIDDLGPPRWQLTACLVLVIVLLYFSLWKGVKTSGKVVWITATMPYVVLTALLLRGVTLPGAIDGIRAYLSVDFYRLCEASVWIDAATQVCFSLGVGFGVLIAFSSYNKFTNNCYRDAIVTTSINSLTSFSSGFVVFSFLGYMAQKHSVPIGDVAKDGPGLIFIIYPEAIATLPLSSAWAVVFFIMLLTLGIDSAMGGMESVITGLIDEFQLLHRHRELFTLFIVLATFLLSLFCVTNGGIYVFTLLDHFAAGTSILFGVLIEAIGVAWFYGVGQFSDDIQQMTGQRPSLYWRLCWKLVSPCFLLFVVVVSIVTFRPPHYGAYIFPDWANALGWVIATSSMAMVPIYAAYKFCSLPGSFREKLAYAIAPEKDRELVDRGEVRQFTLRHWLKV
- TEST DETAILS: Displacement of [3H]-Win35428 from human DAT expressed in stable HEK cell membranes at 10 uM after 90 mins by microbeta scintillation counting method relative to control
- COND: stable HEK cell membranes expressing human DAT, probe [3H]-Win35428

| COMPOUND | RESULT VALUE |
| --- | --- |
| CCCN(CC[C@]1(O)C[C@H](NC(=O)c2ccc3ccccc3c2)C1)[C@H]1CCc2nc(N)sc2C1 | > 50% |

Request: If you can, please state the reported inhibition at […], 10 µM value of CCCN[C@H]1CCc2nc(N)sc2C1 [PRAMIPEXOLE] .
Response: < 50%
